- Tested on: Wnt5a (protein binding on small-molecule microarray)
- experiment.summary: small molecules binding Wnt5a protein – biophysical, small-molecule microarray, 635/667 nm fluorescence, primary screen (AID 1142);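 also: fluorescence read at 667 nm with signal to noise per printed feature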
- measurement.parameters: 635 nm fluorescence, higher = more signal
Answer each item with its documented composite z-score.
// no unit, no text: just the number

Report composite z-score for CC(C)CNC(=O)[C@@]1(Cc2ccccc2I)c2ccccc2C(=O)N(Cc2ccccc2C(F)(F)F)[C@H]1c1ccc(CO)cc1 please.
-0.0971

Report composite z-score for COCCCNC(=O)[C@@H]1c2ccccc2C(=O)N(Cc2ccccc2OC)[C@H]1c1ccc(CO)cc1 please.
0.924

Report composite z-score for CC(C)CCC[C@@H](C)[C@H]1CC[C@@]2(C)C3=C(CC[C@]12C)[C@@]1(C)CC[C@H](OC(=O)c2ccc(C(F)(F)F)nc2)C(C)(C)C1CC3 (stereo partly drawn) please.
0.0419

Report composite z-score for [N-]=[N+]=NCc1ccccc1[C@H]1OC(c2ccc(OCCCO)cc2)=N[C@@]1(Cc1ccccc1)C(=O)N1CCCCC1 please.
1.5

Report composite z-score for CN(C)CCCCCCNC(=O)[C@@H]1C[C@@H]2C(=O)N[C@@H](CCCC[N+](C)(C)C)C(=O)N2[C@@H]1c1ccc(O)cc1 please.
0.133

Report composite z-score for NCCCCCCNC(=O)[C@H]1C[C@H]2C(=O)N[C@@H](Cc3ccccc3)C(=O)N2[C@H]1c1cccc(OCCO)c1 please.
-0.0371

Report composite z-score for COC(=O)[C@H](Cc1ccccc1)N[C@H](/C=C/C1CC1)[C@@H](O)Cc1ccccc1 please.
-0.711

Report composite z-score for O=C1[C@H]2C=C(I)[C@H](C[C@@H]2OCCCCO)[C@@]12CO2 please.
-0.163
